Molecular target: T1, GFP-9S library array, motif 4 ND N98A;D124Y (synthetic construct, N98A;D124Y)
T1 chain: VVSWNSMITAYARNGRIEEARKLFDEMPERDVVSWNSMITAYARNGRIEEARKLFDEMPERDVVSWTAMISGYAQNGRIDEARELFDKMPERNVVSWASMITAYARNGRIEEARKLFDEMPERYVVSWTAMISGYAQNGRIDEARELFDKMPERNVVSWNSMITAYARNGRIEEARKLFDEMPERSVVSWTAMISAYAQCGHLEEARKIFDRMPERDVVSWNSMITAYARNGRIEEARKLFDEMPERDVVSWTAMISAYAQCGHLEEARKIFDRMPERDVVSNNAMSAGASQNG
Assay: high-throughput RNA pulldown from lysate on Ni-NTA beads; HRP: 50 mM Tris pH 8, 150 mM NaCl, 1 mM beta-mercaptoethanol, 50 ug/ml BSA, 3 ug/ml yeast RNA, 0.5% heparin; ITC and FP: Tris pH 8, 200 mM KCl, 5% glycerol; MST: 50 mM Tris pH 8, 200 mM NaCl, 1 mM DTT, BSA, heparin, 0.05% Tween 20
Details: tags: N-terminal His-eGFP; label: 5' IRDye 800CW
pKd by entry:
Please report pKd as the negative decimal logarithm of the molar concentration, giving only the number.

AUUAUACGUGA (ssRNA) [IR-rpoA-U] | 6.76

Exercise: Can you share its pKd? I mean this binder: AUUAAACGUGA (ssRNA) [IR-rpoA-A]
Solution: 6.76
